Entry source: ChEMBL document CHEMBL1961873

target desc: Tyrosine-protein kinase SYK (Homo sapiens);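 note: reported percentages are mean inhibition values for SYK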
measurement setup: at 0.1 µM
measurement name: inhibition (%)
Quick note: give the figure in %, leave out the unit.

- Fc1ccc(-c2nn3ncccc3c2-c2ccnc(Nc3ccc4c(c3)OCCO4)n2)cc1: -5.37
- c1ccc(COc2ccc(Nc3ncnc4ccc(-c5ccco5)cc34)cc2)cc1: -0.45
- O=C(O[C@H]1CN[C@H](C#Cc2cc3ncnc(Nc4ccc(Cc5ccccc5)cc4)c3s2)C1)N1CCOCC1: -0.1
- Nc1nc(-c2cccc(Cl)c2)c(-c2ccc3ncccc3n2)s1: -2.15
- N#Cc1c(NC(=O)CN2CCOCC2)sc2c1CCCC2: -0.42
- CCn1c(-c2nonc2N)nc2ccccc21: 0.68
- COc1ccc(CNC(=O)c2ccc(-c3cc(-c4nnc(C)o4)ccc3C)cc2)cc1: 2.81
- COc1cc2ncn(-c3cc(OCc4ccccc4C(F)(F)F)c(C(=O)N(C)C)s3)c2cc1OC: 4.44

Prompt: Enter reported inhibition observed with Tyrosine-protein kinase SYK (Homo sapiens) for Fc1ccc(-c2cc(-c3c[nH]nc3-c3ccccn3)ccn2)cc1
Completion: 0.3

* * *

target desc: Dual specificity protein kinase CLK3 (Homo sapiens) (UniProt P49761);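 note: each value is the mean inhibition of CLK3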
Sequence (P49761 whole entry, looked up): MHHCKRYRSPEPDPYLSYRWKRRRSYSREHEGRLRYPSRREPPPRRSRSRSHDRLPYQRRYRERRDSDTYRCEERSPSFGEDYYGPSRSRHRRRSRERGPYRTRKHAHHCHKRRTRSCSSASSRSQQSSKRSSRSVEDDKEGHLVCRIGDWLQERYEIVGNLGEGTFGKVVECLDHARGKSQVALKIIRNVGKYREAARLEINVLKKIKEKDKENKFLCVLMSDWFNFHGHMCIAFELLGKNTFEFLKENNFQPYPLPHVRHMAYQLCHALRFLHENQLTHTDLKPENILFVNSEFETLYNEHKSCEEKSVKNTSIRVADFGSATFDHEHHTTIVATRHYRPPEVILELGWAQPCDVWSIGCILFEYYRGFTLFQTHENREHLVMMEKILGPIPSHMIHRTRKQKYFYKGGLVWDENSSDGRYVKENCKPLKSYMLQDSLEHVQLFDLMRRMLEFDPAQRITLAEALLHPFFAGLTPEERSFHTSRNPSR
measurement setup: at 1 µM
measurement name: inhibition (%)
Quick note: give the figure in %, leave out the unit.

• CNC(=O)c1cccc(C#Cc2cncnc2Nc2ccc(OCc3cccc(F)c3)c(Cl)c2)c1 = -0.52
• COC(=O)c1sc(-n2cnc3cc(OC)c(OC)cc32)cc1OCc1ccccc1C(F)(F)F = 0.53
• c1ccc(-c2nc3n(c2-c2ccc4c(c2)OCO4)CCC3)nc1 = 1.02

Prompt: Enter reported inhibition observed with Dual specificity protein kinase CLK3 (Homo sapiens) (UniProt P49761) for CS(=O)(=O)CCNCc1coc(-c2ccc3ncnc(Nc4ccc(OCc5ccccc5)cc4)c3c2)c1
Completion: 0.66

Prompt: Item: CCN1CCC(CC(=O)Nc2n[nH]c3nnc(-c4cccc(F)c4F)cc23)CC1
Completion: 2.16

Prompt: Item: COc1cccc(-c2c[nH]c3c(N/N=C/c4ccncc4)ncnc23)c1
Completion: 14

Prompt: Item: O=S(=O)(CCNCc1ccc(-c2ccc3ncnc(Nc4ccc(OCc5cccc(F)c5)c(Cl)c4)c3c2)o1)c1ccccc1
Completion: -0.68

* * *

Below, each entry is listed alongside its reported inhibition.
target desc: Mitogen-activated protein kinase 3 (Homo sapiens) (UniProt P27361);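 note: each value is a mean inhibition figure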
Sequence (P27361 whole entry): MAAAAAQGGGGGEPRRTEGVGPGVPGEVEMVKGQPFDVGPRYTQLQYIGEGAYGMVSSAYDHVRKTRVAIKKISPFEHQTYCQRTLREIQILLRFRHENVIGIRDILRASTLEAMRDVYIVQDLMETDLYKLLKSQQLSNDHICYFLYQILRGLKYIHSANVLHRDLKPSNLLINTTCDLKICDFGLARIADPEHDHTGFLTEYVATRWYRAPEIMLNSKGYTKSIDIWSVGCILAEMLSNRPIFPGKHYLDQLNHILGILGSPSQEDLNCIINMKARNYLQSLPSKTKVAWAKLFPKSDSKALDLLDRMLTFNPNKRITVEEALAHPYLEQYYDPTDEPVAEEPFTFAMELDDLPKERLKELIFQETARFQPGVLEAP
measurement setup: at 0.1 µM
Reply with the number and its unit after it.

Worked examples, 3 compounds total:
* Cc1ccc2c(-c3ccnc(Nc4ccccc4)n3)c(-c3ccc(F)cc3)nn2n1 | 3.56%
* CCn1c(-c2nonc2N)nc2ccccc21 | 3.48%
* CCCN(CCS(C)(=O)=O)Cc1ccc(-c2ccc3ncnc(Nc4ccc(OCc5cccc(F)c5)c(Cl)c4)c3c2)o1 | 1.75%

Prompt: # inhibition lookup, item CCn1c(-c2nonc2N)nc2c(C#CC(C)(C)O)ncc(OC3CCNCC3)c21
Completion: 4.27%

Prompt: Item: CCc1nn2ncccc2c1-c1ccnc(NC2CC2)n1
Completion: -0.55%

Prompt: Item: NS(=O)(=O)c1ccc(N/N=C2\C(=O)Nc3ccc4ncccc4c32)cc1
Completion: 6.45%

Prompt: Item: CCn1c(-c2nonc2N)nc2cnc(Oc3cccc(NC(=O)c4ccc(N(C)C)cc4)c3)cc21
Completion: 1.53%

Prompt: Item: Nc1nc(-c2ccc(F)cc2)c(-c2ccc3ncccc3n2)s1
Completion: 3.56%

Prompt: Item: NC(=O)c1sc(-n2cnc3ccc(C(F)(F)F)cc32)cc1OCc1ccccc1Br
Completion: 3.25%

Prompt: Item: CN(C)CCOc1ccc(-c2nc(-c3ccncc3)c(-c3ccc4c(c3)CC/C4=N\O)[nH]2)cc1
Completion: 1.97%

* * *

target desc: Serine/threonine-protein kinase D2 (Homo sapiens) (UniProt Q9BZL6);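 note: reported percent inhibition values are means, part of the GSK PKIS kinase panel screen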
Sequence (whole entry): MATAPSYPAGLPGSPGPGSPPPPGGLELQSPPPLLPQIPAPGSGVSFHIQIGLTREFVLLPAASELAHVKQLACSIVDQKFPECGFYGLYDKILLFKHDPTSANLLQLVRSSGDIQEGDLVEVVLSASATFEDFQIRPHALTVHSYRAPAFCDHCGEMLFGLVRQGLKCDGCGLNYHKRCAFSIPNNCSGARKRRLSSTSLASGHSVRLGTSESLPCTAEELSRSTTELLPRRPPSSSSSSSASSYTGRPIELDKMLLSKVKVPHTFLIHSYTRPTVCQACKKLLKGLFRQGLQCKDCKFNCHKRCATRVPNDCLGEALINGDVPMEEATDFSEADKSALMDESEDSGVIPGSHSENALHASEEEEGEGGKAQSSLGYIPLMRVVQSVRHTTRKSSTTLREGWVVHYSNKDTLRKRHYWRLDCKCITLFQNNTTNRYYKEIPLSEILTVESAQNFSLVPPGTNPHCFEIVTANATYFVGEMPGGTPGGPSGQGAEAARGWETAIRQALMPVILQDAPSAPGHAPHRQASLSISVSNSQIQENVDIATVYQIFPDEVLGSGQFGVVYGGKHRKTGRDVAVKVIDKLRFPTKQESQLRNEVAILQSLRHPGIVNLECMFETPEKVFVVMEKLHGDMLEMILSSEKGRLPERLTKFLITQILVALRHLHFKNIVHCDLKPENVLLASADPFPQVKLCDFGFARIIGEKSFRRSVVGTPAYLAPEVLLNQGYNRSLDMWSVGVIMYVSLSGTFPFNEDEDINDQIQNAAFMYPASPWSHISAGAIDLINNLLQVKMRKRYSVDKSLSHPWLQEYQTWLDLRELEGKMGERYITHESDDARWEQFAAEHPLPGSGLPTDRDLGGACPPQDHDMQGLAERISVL
measurement setup: at 0.1 µM
Below, each entry is listed alongside its reported inhibition.
Quick note: give the figure in %, leave out the unit.

* CNC(=O)c1cccc(C#Cc2cncnc2Nc2ccc(OCc3cccc(F)c3)c(Cl)c2)c1 | -0.57
* N#Cc1c(NC(=O)c2ccc(F)cc2)sc2c1CCCC2 | 3.3
* O=S(=O)(CCNCc1ccc(-c2ccc3ncnc(Nc4ccc(OCc5cccc(F)c5)c(Cl)c4)c3c2)o1)c1ccccc1 | 5.52

Prompt: # inhibition lookup, item CN1CCC(n2cnc(-c3ccc(F)cc3)c2-c2ccnc(N)n2)CC1
Completion: 3.25

Prompt: Item: c1ccc(COc2ccc(Nc3ncnc4ccc(-c5ccco5)cc34)cc2)cc1
Completion: 3.12

Prompt: Item: NS(=O)(=O)c1ccc(Nc2ncc(-c3ccccc3)o2)cc1
Completion: 2.92

* * *

target desc: Serine/threonine-protein kinase MRCK beta (Homo sapiens);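 note: averaged inhibition values against MRCK beta, part of the GSK PKIS profiling dataset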
measurement setup: at 1 µM
measurement name: inhibition (%)
Quick note: give the figure in %, leave out the unit.

Worked examples, 3 compounds total:
- CN1CCC(n2cnc(-c3ccc(F)cc3)c2-c2ccnc(Nc3ccccc3)n2)CC1: 2.04
- CC1=C(C(=O)Nc2cc(Cl)c3[nH]ncc3c2)C(c2ccc(C(F)(F)F)cc2)CC(=O)N1 (stereo not drawn): 65.5
- COc1ccc(CNC(=O)c2ccc(-c3cc(-c4nnc(C)o4)ccc3C)cc2)cc1: 2.99

Prompt: # inhibition lookup, item CNC(=O)c1cc(-c2ccc(F)cc2)cc(-c2ccc(S(=O)(=O)N3CCCC3)cc2)c1N
Completion: -0.2

Prompt: Item: NC(=O)c1sc(-n2cnc3ccc(C(F)(F)F)cc32)cc1OCc1ccccc1Br
Completion: 3.16

Prompt: Item: CNC(=O)c1cccc(C#Cc2cncnc2Nc2ccc(OCc3cccc(F)c3)c(Cl)c2)c1
Completion: -3.2

* * *

target desc: Tyrosine-protein kinase Fes/Fps (Homo sapiens) (UniProt P07332)
Sequence (P07332 whole entry): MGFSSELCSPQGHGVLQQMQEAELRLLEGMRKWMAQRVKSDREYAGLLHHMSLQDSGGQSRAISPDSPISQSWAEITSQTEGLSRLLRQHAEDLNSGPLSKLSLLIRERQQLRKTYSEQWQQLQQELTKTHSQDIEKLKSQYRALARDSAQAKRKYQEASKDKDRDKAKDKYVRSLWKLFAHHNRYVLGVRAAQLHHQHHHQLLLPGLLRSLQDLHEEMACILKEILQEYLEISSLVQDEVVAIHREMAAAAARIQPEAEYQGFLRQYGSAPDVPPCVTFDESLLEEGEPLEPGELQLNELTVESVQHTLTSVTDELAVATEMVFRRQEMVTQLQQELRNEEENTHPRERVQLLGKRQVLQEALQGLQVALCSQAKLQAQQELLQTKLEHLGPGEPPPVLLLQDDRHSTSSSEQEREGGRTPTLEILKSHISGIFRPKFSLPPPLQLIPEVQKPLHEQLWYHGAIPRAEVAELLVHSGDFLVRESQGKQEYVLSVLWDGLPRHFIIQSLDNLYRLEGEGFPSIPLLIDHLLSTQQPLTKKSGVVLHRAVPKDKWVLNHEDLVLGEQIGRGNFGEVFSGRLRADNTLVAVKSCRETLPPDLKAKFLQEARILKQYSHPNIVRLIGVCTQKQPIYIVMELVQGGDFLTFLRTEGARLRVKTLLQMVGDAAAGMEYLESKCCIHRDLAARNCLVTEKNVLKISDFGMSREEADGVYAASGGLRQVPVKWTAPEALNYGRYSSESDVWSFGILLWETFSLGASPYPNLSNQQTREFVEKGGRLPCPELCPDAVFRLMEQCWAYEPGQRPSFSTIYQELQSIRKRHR
measurement setup: at 0.1 µM
Description: GSK_PKIS: FES mean inhibition at 0.1 uM [Nanosyn]
measurement name: inhibition (%)
Quick note: give the figure in %, leave out the unit.

Worked examples, 5 compounds total:
* Fc1ccc(-c2nn3ncccc3c2-c2ccnc(Nc3ccc4c(c3)OCCO4)n2)cc1 | 3.45
* COc1cccc(-c2c[nH]c3c(N/N=C/c4ccncc4)ncnc23)c1 | 1.82
* CCN(CC)S(=O)(=O)c1ccc(OC)c(Nc2ncc(-c3ccccc3)o2)c1 | 0.12
* CCNC(=O)O[C@H]1CN[C@H](C#Cc2cc3ncnc(Nc4ccc(OCc5cccc(F)c5)c(Cl)c4)c3s2)C1 | 2.67
* NS(=O)(=O)c1ccc(N/N=C2\C(=O)Nc3ccc4ncccc4c32)cc1 | 2.15

Pending compound:
Prompt: # inhibition lookup, item Cc1cccc(Nc2ncc(-c3ccccc3)o2)c1
Completion: 1.97

* * *

target desc: Serine/threonine-protein kinase 3 (Homo sapiens);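 note: each value is the mean inhibition of MST2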
Sequence (whole entry): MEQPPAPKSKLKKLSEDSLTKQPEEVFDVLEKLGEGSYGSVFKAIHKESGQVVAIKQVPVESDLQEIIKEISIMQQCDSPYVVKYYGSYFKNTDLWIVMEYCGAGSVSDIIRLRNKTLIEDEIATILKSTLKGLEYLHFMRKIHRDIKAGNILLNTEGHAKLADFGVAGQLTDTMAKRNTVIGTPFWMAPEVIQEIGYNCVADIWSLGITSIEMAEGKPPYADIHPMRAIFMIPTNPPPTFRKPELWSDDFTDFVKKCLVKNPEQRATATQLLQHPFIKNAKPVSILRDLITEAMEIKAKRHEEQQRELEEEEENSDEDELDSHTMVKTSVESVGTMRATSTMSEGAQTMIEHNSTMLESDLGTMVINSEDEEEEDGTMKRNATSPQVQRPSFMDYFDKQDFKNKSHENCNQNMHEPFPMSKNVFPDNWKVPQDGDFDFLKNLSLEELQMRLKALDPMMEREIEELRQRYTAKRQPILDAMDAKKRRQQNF
measurement setup: at 1 µM
Below, each entry is listed alongside its reported inhibition.
Quick note: give the figure in %, leave out the unit.

• CNC(=O)c1cncc(/C=C/c2ccccc2Cl)c1 = 7.94

Prompt: # inhibition lookup, item Cc1cccc(Nc2ncc(-c3ccccc3)o2)c1
Completion: 4.97

Prompt: Item: NS(=O)(=O)c1ccc(Nc2ncc(-c3ccccc3)o2)cc1
Completion: 8.38

Prompt: Item: CS(=O)(=O)CCNCc1coc(-c2ccc3ncnc(Nc4ccc(OCc5ccccc5)cc4)c3c2)c1
Completion: 3.71

Prompt: Item: COc1ccc(-c2oc3ncnc(N)c3c2-c2ccc(NC(=O)Nc3cc(C(F)(F)F)ccc3F)cc2)cc1
Completion: 18.3
